# System: MS2 coat protein
# Protocol notes: apparent KD of MS2 coat protein; higher = weaker reporter binding
# Experimental context: Eterna round: R107; input ligand: tryptophan 2.4 mM
# binarize apparent KD of MS2 coat protein: threshold 20 nM inclusive, high side Satisfied, low side Not satisfied

Sequence code	Label value
ACAUGAGGAUCACCCAUGUAUGAUGUUCCUCGAGGACCGGUACGGCCGCCACUCGAACGAGUGGCGCGCGAGCGCGCGCUCGCGC [aVa]	Not satisfied
UGUAUGUGAUCUGAUACCAGCGUUGAUAACCUGAGGAUCACCCUGGUAAGGCGAAAGCCACGCCCUUGGCAGCAGAUCGCAUACU	Satisfied
CGAAUACGAAUUGAUACCAGCAUGUUAACAUGAGGAUCACCCAUGUUAAGGAUAACAUAAUGCCCUUGGCAGCAACGUAAAUUCG [Ab]	Not satisfied
ACCUACACGGAGACGUGUAGGAGUAAUGAUACCAGCAUGGAGACAUGCCCUUGGCAGCGUUACAUGAGGAUCACCCAUGUAGGUU [ETHA #4]	Satisfied
AUACAUGAGGAUCACCCAUGUUAUAGUGAAGGAGCGACGUUUAUGUCAGGUAGGUCGCACUGUUGUUUAAUGAUUCUUGGAUCUU [#21 Exclusion - Arginine A]	Not satisfied
UGUAUGUGAUUUGAUACCAGACCAGCUGGUGGUCCAUGAGGAACACCCAUGGAGGUUUGGGUCCCUUGGCAGCAAAUCGCAUACU [SS Theo B #24 Ms20]	Satisfied
UGUAUGGACUGAAGGAGCGGGAAAAUAACCUGAGGAUCACCCAGGUAAAAGGCGAAAGCCACCCAGGUAGGUCGCAGUCCAUACU	Not satisfied
UGUAACAUGAGGAUCACCCAUGUGAGUGAUACCAGACUAGUGUUGGUCCCUUGGCAGCACGCUGGACGAAUGUGUAGUCUAUGCG [Same State - Theophylline A (Freestyle 18)]	Satisfied
AUACAUGAGGAUCACCCAUGUUAUAGUGAAGGAGCGACAUUUAGGUCAGGUAGGUCGCACUAUAGUAUUAUAAUUCUUAGUUCUU [JR_ExcArginiA_Sub018]	Satisfied
GUCUCUGGGAGAAGGAGCGUGAAGACAUGAGGAUCACCCAUGUAGAGGCGCCGACGGCGUUCGCAGGUAGGUCGCUCCCAGAGAC [#1 Same State - Arginine B Attempt #18 (HarryS)]	Not satisfied
ACCUGCGUUUGAUUCUAUCUGACGCAGGUUCGAGGACCGGUACGGCCGCCACUCGGACAUGAGGAUCACCCAUGUUUGACAUGGG [#03 Exclusion Tryptophan A]	Satisfied
GGUCUCUGGAGCGAUACCAGCUUGAGUGUACUGGCCAGGUACAUGAGGAUCACCCAUGUAAGCCCUUGGCAGCGCUGCAGAGACC [#1 Exclusion - Theophylline B Attempt #16 (HarryS)]	Not satisfied

Entry source: the supplement of paper PMC9170038
